TEST_TARGET: HPK1 (Homo sapiens)
Sequence (Q92918 whole entry, looked up): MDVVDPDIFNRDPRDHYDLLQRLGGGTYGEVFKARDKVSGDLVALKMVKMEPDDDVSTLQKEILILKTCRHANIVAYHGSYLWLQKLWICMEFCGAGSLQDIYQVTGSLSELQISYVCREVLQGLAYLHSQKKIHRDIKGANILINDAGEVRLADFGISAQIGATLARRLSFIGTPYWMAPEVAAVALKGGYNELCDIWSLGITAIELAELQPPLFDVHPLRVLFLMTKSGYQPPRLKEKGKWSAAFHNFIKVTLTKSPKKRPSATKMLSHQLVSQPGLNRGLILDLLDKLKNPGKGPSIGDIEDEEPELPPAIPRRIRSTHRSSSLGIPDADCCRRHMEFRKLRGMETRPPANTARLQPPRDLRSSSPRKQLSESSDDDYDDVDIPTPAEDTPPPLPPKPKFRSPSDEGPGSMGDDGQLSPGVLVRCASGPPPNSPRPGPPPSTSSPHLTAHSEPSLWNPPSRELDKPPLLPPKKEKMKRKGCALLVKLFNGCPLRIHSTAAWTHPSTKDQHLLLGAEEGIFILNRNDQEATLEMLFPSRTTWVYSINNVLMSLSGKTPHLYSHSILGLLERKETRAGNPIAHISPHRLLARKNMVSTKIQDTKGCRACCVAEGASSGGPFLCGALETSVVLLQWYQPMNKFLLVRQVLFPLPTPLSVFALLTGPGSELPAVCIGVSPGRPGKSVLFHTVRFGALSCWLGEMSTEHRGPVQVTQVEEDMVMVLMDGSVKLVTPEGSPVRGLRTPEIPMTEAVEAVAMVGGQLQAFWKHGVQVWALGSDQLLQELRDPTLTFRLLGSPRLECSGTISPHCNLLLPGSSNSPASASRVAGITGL
MEASUREMENT_NOTES: HPK1 Lantha Binding Assay ("Lanth")
EXPERIMENTAL_SETUP: Table B1-1, read-out: HPK1 Ki (μM) (Lanth)
ASSAY_READOUT: Ki (µM)

molecule="Cc1c(-c2cc3cc(NC(=O)[C@@H]4C[C@@H]4F)ncc3c(N)n2)cnc2nc[nH]c12 (racemic)" test_target="HPK1 (Homo sapiens)" unit_string=µM test_value=0.00298
molecule="Cn1cc([C@H]2C[C@@H]2C(=O)Nc2cc3c(Cl)c(-c4cnccc4CCO)nc(N)c3cn2)cn1 (single isomer, unassigned)" test_target="HPK1 (Homo sapiens)" unit_string=µM test_value=0.00562
molecule="Cc1ccncc1-c1cc2cc(NC(=O)[C@@H]3C[C@H]3F)ncc2c(N)n1 (single isomer, unassigned) [Compound 107]" test_target="HPK1 (Homo sapiens)" unit_string=µM test_value=0.000654
molecule="Cc1ccncc1-c1cc2cc(NC(=O)C3CC34CN(c3ncccc3C#N)C4)ncc2c(N)n1 (centres unmarked)" test_target="HPK1 (Homo sapiens)" unit_string=µM test_value=0.00077
molecule="CCc1ccncc1-c1cc2cc(NC(=O)[C@H]3C[C@@H]3COC)ncc2c(N)n1 (racemic)" test_target="HPK1 (Homo sapiens)" unit_string=µM test_value=0.000736

* * *

TEST_TARGET: HPK1
MEASUREMENT_NOTES: HPK1 Lantha Binding Assay ("Lanth")
EXPERIMENTAL_SETUP: Table B1-1, read-out: HPK1 Ki (μM) (Lanth)
Description: HPK1 Lantha Binding Assay (“Lanth”) […] For the binding assay, 4 ul 2×HPK1 and Eu-anti-GST antibody were added to each well of the assay plate using a Multidrop reagent dispenser. […] The results of the assay were read using an Envision plate reader with the following parameters: TR_FRET, 340ex/615 and 665em; 100 usec Delay; and 200 usec integration. […]
In this section we review reported Ki values for a set of compounds.
ASSAY_READOUT: Ki

compound=Cc1ccncc1-c1nc(N)c2cnc(NC(=O)[C@H]3C[C@@H]3CC#N)cc2c1C1CC1 assay_readout=Ki test_value="0.02 nM"
compound=NCCOCCn1cc([C@H]2C[C@@H]2C(=O)Nc2cc3cc(-c4c(Cl)cccc4Cl)nc(N)c3cn2)cn1 assay_readout=Ki test_value="0.287 nM"
compound=Nc1nc(-c2cnccc2CCO)cc2cc(NC(=O)[C@@H]3C[C@H]3c3cccnc3)ncc12 assay_readout=Ki test_value="0.0892 nM"
compound=CCc1ccncc1-c1cc2cc(Nc3cn[nH]c3)ncc2c(N)n1 assay_readout=Ki test_value="0.8 nM"
compound=Cc1ccncc1-c1cc2cc(NC(=O)[C@H]3[C@@H]4CN(S(C)(=O)=O)C[C@@H]43)ncc2c(N)n1 assay_readout=Ki test_value="15 nM"
compound=Cc1ccncc1-c1cc2cc(NC(=O)[C@@H]3[C@H](C)[C@H]3c3cnn(C)c3)ncc2c(N)n1 assay_readout=Ki test_value="2.65 nM"
compound=CC(=O)N1CC(n2cc(Nc3cc4cc(-c5cnccc5C)nc(N)c4cn3)cn2)C1 assay_readout=Ki test_value="0.02 nM"
compound="CCc1ccncc1-c1cc2cc(NC(=O)N[C@@H]3CCN(C)C3=O)ncc2c(N)n1 [Compound 65]" assay_readout=Ki test_value="5.47 nM"
compound=CCc1ccncc1-c1cc2cc(NC(=O)CCC(N)=O)ncc2c(N)n1 assay_readout=Ki test_value="14 nM"
compound=Cc1ccc(C#N)cc1-c1cc2cc(NC(=O)[C@@H]3C[C@H]3c3cnn(C)c3)ncc2c(N)n1 assay_readout=Ki test_value="1.36 nM"
compound=Cc1ccncc1-c1cc2cc(Nc3ccc(CS(N)(=O)=O)cc3)ncc2c(N)n1 assay_readout=Ki test_value="0.134 nM"
compound="Cc1ccncc1-c1cc2cc(NC(=O)[C@H]3[C@@H](C)[C@@H]3c3cnn(C)c3)ncc2c(N)n1 (single isomer, unassigned)" assay_readout=Ki test_value="0.114 nM"
compound=COCCN1C[C@@H]2[C@H](C1)[C@H]2C(=O)Nc1cc2cc(-c3cnccc3C)nc(N)c2cn1 assay_readout=Ki test_value="1.1 nM"

Ref: patent US11034692B1
